src = the supplement of paper PMC10724198

system: Saccharomyces cerevisiae; test: protein stability index of tFT-peptide fusion (C-terminal peptide) (PSI (0-1 scale)); higher = more stable (slower turnover); settings: genetic background: doa10 deletion; temperature: 30 C
measured.endpoint: protein stability index
Answer with a number only.

The examples below pair each entry with its known result.
RSFPCITVFIRA
0.325
GINYSNKKILVN
0.278
APPRSLSPPLLS
0.679

Reported protein stability index (Saccharomyces cerevisiae) for entry `LFFCYRVFLLVF` is 0.121

Measured on Saccharomyces cerevisiae, `ILVLKFLRLLSA` has a documented protein stability index of 0.343

For the sequence `LGFFPSPVLCVF` , the measured protein stability index on Saccharomyces cerevisiae was 0.171

Saccharomyces cerevisiae assay, sequence `GYRYMWLWRLSA` , recorded protein stability index = 0.148

The sequence `ALEFLLLVCRRL` , tested on Saccharomyces cerevisiae, showed protein stability index of 0.31

Reading of protein stability index for `LCWLVHFFLWVS` with Saccharomyces cerevisiae: 0.253

Reading of protein stability index for `LPTLDCPLHRLF` with Saccharomyces cerevisiae: 0.674

Here `FRHFPLLLSFVR` was tested on Saccharomyces cerevisiae, and its protein stability index came to 0.324

With Saccharomyces cerevisiae as the test system, `SSVFLGWLIVCY` showed protein stability index of 0.154

Note to self: protein stability index of `QGRRKEKAVTLN` with Saccharomyces cerevisiae was 0.175

Lab note: sequence `AFFCTLCLFLVS` tested on Saccharomyces cerevisiae; recorded protein stability index was 0.306

GET /values?item= `LFVPVFSFGFVC` &system= Saccharomyces cerevisiae returns protein stability index: 0.121

Observed protein stability index on Saccharomyces cerevisiae, entry `AWWMALAVPIVA` , equals 0.0817

protein stability index for Saccharomyces cerevisiae with input `PSLPPLPPFAAL` equals 0.663

Entry `AISLPVEVLAFS` : protein stability index on Saccharomyces cerevisiae = 0.255

Form field protein stability index for item `CGLGKVLGWRWV` on Saccharomyces cerevisiae: 0.185

Record `VLFVRGHTLWLM` ; system Saccharomyces cerevisiae; protein stability index = 0.486

Considering `TVVIFLCSYITT` , its protein stability index with Saccharomyces cerevisiae was recorded as 0.0829

Sample `LFLLSVNLLLGY` , system: Saccharomyces cerevisiae. Its protein stability index is 0.105

Tested system Saccharomyces cerevisiae; protein stability index recorded for `LVLCCGFWFRAV` was 0.27

Assay Saccharomyces cerevisiae, sample `KNGNVEILIKCT` , protein stability index read: 0.377

---

Form field: protein stability index (one value per entry).
system: Saccharomyces cerevisiae; experiment: protein stability index of tFT-peptide fusion (C-terminal peptide) (PSI (0-1 scale)); higher = more stable (slower turnover); conditions: genetic background: cdc53-1; temperature: 37 C

SSGAVGLVIVVC
0.185
GVLHSKGPWFSG
0.757

Bench note, Saccharomyces cerevisiae: `VFWLLVGLGCFS` , protein stability index reads 0.563

Form field protein stability index for item `IYNIIFKYRTIT` on Saccharomyces cerevisiae: 0.581

So the reported protein stability index for `GINYSNKKILVN` , on Saccharomyces cerevisiae, turned out to be 0.673

Record `VRIGCSLLFFLP` ; system Saccharomyces cerevisiae; protein stability index = 0.734

protein stability index value, target or system Saccharomyces cerevisiae, for `KRNLLYNIIVWI` : 0.476

protein stability index of `FVSGRFLFFFVL` , assay on Saccharomyces cerevisiae, is 0.675

Response field protein stability index (Saccharomyces cerevisiae) for item `IGFFFACFFSVF` : 0.444

Value (protein stability index, Saccharomyces cerevisiae) for record `LRMSLLVFLLFA` = 0.407

The reported Saccharomyces cerevisiae protein stability index of `CLILGLFSLIFL` is 0.564

---

test system: Saccharomyces cerevisiae; test: protein stability index of tFT-peptide fusion (C-terminal peptide) (PSI (0-1 scale)); higher = more stable (slower turnover); details: genetic background: cdc34-1; temperature: 37 C
measured.endpoint: protein stability index
Keep it simple and answer with nothing but the number.

// known answers, use as guide
TYYPLNRSRFIG
0.586
CLAWWLGRVWVC
0.184
LPIFWVWFSVFR
0.232

Assay Saccharomyces cerevisiae, sample `RGLLLKILIASG` , protein stability index read: 0.376

For the sequence `AVPTSPYSLIVY` , the measured protein stability index on Saccharomyces cerevisiae was 0.524

---

system: Saccharomyces cerevisiae; assay: protein stability index of tFT-peptide fusion (C-terminal peptide) (PSI (0-1 scale)); higher = more stable (slower turnover); conditions: genetic background: wild type; temperature: 30 C
measured.endpoint: protein stability index
Keep it simple and answer with nothing but the number.

Please review the entries below; each comes with its answer.
TQHPQPCPLAAV
0.712
TTVSSSLSPVPD
0.718
PRCSVYPITGPY
0.682
PSQHVHTSPLYS
0.695
PPPPTTATRQQT
0.691
GDNRGLTRVGIE
0.718
PNYQRRTKTNSP
0.703

The recorded protein stability index for entry `TSNLRIISTWRV` equals 0.685

---

Catalogue of protein stability index values
tested on: Saccharomyces cerevisiae; test: protein stability index of tFT-peptide fusion (C-terminal peptide) (PSI (0-1 scale)); higher = more stable (slower turnover); conditions: genetic background: wild type; temperature: 37 C
Just the number, please, no unit after it.

Some sequences with known protein stability index results, for comparison:
VFYWVGVLCGWG
0.405
AFLCVFGFCFFV
0.407
SVSRIFRTFSCY
0.396

We next turn to a different sequence, shown below.
# sequence `FFRAYLQMYVTD` ; its protein stability index = 0.412

---

system: Saccharomyces cerevisiae; experiment: protein stability index of tFT-peptide fusion (C-terminal peptide) (PSI (0-1 scale)); higher = more stable (slower turnover); conditions: genetic background: wild type; temperature: 30 C
measured.endpoint: protein stability index
Give only the figure.

Worked examples, 5 sequences total:
GLPRASPLPIPV
0.443
VPASWLRMLAFC
0.0647
FLSVPHLLFLFI
0.469
PLFPLLGLLFFF
0.496
GVLHSKGPWFSG
0.665

Entry `CTESVYIIRFML` — recorded protein stability index = 0.253

Documented protein stability index of `RRVFPLIIVLLF` : 0.126

---

test system: Saccharomyces cerevisiae; assay: protein stability index of tFT-peptide fusion (C-terminal peptide) (PSI (0-1 scale)); higher = more stable (slower turnover); conditions: genetic background: das1 deletion; temperature: 30 C
Measured protein stability index of individual entries
Response field accepts a number only; no unit should be typed.

Lab note: measured protein stability index of MAINDCFDQAQG [YER076C C-terminal 12 aa] was 0.695

The recorded protein stability index for MAHRIKNFRDEL [SIL1 C-terminal 12 aa] is 0.712

// TALDYVSEKKKN [STE24 C-terminal 12 aa] : protein stability index value = 0.679

---

test system: Saccharomyces cerevisiae; assay: protein stability index of tFT-peptide fusion (C-terminal peptide) (PSI (0-1 scale)); higher = more stable (slower turnover); conditions: genetic background: wild type; temperature: 30 C
measured.endpoint: protein stability index
# print the numeric value only

Below, each entry is followed by its recorded protein stability index result.
PRGILLATPEGH
0.684
RARVVRRWDTCG
0.697
LVGSSYGRTDML
0.715
SGRAALARVSPT
0.694

`IIRSKGTKSMHK` has a reported protein stability index of 0.691

Form field protein stability index, entry `LCMGVRGRVGVF` : 0.682

Entry `LGVGGPSVREGE` , protein stability index reported as 0.706

---

Listed below: protein stability index values for each entry.
test system: Saccharomyces cerevisiae; test: protein stability index of tFT-peptide fusion (C-terminal peptide) (PSI (0-1 scale)); higher = more stable (slower turnover); conditions: genetic background: wild type; temperature: 30 C
I only need the number, thanks.

Worked examples, 2 sequences total:
SRASATYLFNLH
0.622
RSTGFHRVSCGI
0.72

protein stability index reading for `SSPRQITTLTRL` : 0.757

// protein stability index lookup, sequence = `GGWAGGRQGCGG` , result: 0.77

Given item `SGCGGKFGCALR` , the value recorded as its protein stability index is 0.74

Entry `KKKVEIKCRKRQ` ; protein stability index = 0.667

protein stability index for `CLSPSSHLPSVT` is 0.685

Recorded protein stability index (sequence `SGWGCRMVVCAG` ): 0.245

Reported protein stability index ( `TTLNAETCFPLS` ) = 0.702

Measured protein stability index of `GEGNRVPNPSRP` : 0.669

Note to self: protein stability index recorded for `YHARPQALPSRP` was 0.658

Per the record, `SEVISMSDDLGR` has protein stability index of 0.633

What the record says about `WVGKCLCRGLCD` : protein stability index is 0.668

Form field protein stability index, entry `KIANNEIEYARD` : 0.598

Entry `AVLAALVSTLAG` ; protein stability index = 0.478
